Measured on: Histone deacetylase 8 (Homo sapiens, UniProt Q9BY41)
Sequence (Q9BY41 whole entry): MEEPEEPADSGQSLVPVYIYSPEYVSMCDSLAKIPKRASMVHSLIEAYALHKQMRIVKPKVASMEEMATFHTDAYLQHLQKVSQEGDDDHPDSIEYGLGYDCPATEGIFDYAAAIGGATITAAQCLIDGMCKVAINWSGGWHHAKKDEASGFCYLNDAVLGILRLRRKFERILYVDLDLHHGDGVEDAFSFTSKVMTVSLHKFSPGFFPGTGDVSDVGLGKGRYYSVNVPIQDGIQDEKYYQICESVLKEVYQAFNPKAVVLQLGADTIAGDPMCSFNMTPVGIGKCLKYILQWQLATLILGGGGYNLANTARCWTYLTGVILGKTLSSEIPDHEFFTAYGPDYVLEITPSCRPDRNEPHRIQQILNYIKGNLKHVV
Metric name: pIC50
# pIC50 is unitless: minus log10 of the molar concentration; print number only

Here's what some known entries look like.
- Molecule: "COc1cc2c(cc1OC)C(=O)C(CC1CCN(Cc3ccc(NCc4ccc(C(=O)NO)cc4)cc3)CC1)C2 (stereo not drawn)"
  Measured on: "Histone deacetylase 8 (Homo sapiens, UniProt Q9BY41)"
  pIC50: 5.67
- Molecule: "COc1cc2c(cc1OC)C(=O)C(CC1CCN(Cc3cccc(NC(=O)CCCCCCC(=O)NO)c3)CC1)C2 (stereo not drawn)"
  Measured on: "Histone deacetylase 8 (Homo sapiens, UniProt Q9BY41)"
  pIC50: 5.91

// switching to the query molecule
**Q:** # input molecule: COc1cc2c(cc1OC)C(=O)C(CC1CCN(Cc3ccc(/C=C/C(=O)NO)cc3)CC1)C2 (stereo not drawn) ; wanted: its pIC50
**A:** 6.95

----------
Test system: Astrocyte
Protocol text: Cytotoxicity against primary astrocyte cells (unknown origin) assessed as reduction in cell growth at 3 uM measured after 3 days by MTT assay
Format: toxicity, cell-based
Condition info: 72 h, time 3 day
Metric name: Activity

Here's what some known entries look like.
- Compound: "COc1cc2c(cc1OC)C(=O)C(CC1CCN(Cc3ccc(NCc4ccc(C(=O)NO)cc4)cc3)CC1)C2 (stereo not given)"
  Measured on: "Astrocyte"
  Activity: "Non-Toxic"
- Compound: "COc1cc2c(cc1OC)C(=O)C(CC1CCN(Cc3cccc(NC(=O)CCCCCCC(=O)NO)c3)CC1)C2 (stereo not given)"
  Measured on: "Astrocyte"
  Activity: "Non-Toxic"
- Compound: "COc1cc2c(cc1OC)C(=O)C(CC1CCN(Cc3ccc(NC(=O)CCCCCCC(=O)NO)cc3)CC1)C2 (stereo not given)"
  Measured on: "Astrocyte"
  Activity: "Non-Toxic"
- Compound: "O=C(CCCCCCC(=O)Nc1ccccc1)NO"
  Measured on: "Astrocyte"
  Activity: "Toxic"

**Q:** # input compound: COc1cc2c(cc1OC)C(=O)C(CC1CCN(Cc3ccc(/C=C/C(=O)NO)cc3)CC1)C2 (stereo not given) ; wanted: its Activity
**A:** Toxic

----------
Measured on: Protein deacetylase HDAC6 (Homo sapiens)
Sequence (Q9UBN7 whole entry): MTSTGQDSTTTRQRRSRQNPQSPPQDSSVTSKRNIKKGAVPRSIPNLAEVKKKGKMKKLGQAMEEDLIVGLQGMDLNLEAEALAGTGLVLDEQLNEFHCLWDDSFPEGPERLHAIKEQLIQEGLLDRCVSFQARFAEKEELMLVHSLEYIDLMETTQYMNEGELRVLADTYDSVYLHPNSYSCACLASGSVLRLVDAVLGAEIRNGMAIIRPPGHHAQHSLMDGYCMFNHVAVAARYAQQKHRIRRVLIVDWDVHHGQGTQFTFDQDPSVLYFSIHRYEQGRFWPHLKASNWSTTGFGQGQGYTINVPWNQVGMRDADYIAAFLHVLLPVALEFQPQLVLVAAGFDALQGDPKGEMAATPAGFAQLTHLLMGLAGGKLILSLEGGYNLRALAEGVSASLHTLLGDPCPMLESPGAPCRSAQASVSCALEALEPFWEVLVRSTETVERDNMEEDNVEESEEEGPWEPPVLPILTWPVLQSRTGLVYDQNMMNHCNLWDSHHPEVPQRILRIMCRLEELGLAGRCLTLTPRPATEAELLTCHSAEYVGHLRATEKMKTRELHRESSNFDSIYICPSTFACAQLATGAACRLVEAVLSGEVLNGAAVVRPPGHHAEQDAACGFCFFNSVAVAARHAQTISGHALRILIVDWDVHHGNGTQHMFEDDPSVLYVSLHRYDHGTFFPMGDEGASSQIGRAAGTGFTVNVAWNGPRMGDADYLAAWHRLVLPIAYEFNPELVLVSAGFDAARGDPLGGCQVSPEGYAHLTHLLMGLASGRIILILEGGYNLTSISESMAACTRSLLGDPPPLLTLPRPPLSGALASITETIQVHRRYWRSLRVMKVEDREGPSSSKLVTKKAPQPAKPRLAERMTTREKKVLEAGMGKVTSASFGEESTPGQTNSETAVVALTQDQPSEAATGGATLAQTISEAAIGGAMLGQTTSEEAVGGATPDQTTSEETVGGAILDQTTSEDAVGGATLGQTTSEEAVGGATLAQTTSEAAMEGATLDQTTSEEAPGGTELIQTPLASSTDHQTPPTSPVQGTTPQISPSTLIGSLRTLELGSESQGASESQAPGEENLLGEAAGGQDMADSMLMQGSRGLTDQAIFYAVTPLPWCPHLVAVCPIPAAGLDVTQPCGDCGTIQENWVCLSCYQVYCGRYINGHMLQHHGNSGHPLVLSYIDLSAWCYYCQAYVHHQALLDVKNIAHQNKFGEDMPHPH
Metric name: IC50 (nM)
Give the value, in units of nM, as a plain number.

Here's what some known entries look like.
- Compound: "COc1cc2c(cc1OC)C(=O)C(CC1CCN(Cc3ccc(/C=C/C(=O)NO)cc3)CC1)C2 (centres undefined)"
  Metric name: "IC50"
  Readout number: 239
- Compound: "COc1cc2c(cc1OC)C(=O)C(CC1CCN(S(=O)(=O)c3cccc(/C=C/C(=O)NO)c3)CC1)C2 (centres undefined)"
  Metric name: "IC50"
  Readout number: 110
- Compound: "COc1cc2c(cc1OC)C(=O)C(CC1CCN(Cc3cccc(NC(=O)CCCCCCC(=O)NO)c3)CC1)C2 (centres undefined)"
  Metric name: "IC50"
  Readout number: 51.5

**Q:** Param readout= IC50; system= Protein deacetylase HDAC6 (Homo sapiens); entry= COc1cc2c(cc1OC)C(=O)C(CC1CCN(Cc3ccc(NC(=O)CCCCCCC(=O)NO)cc3)CC1)C2 (centres undefined) ; returns value.
**A:** 2.7
